# SYSTEM: human TRPM8 (Homo sapiens)
# Construct: expressed in transfected cells; host or cells: Chinese hamster ovary (CHO) cells, T-REx tetracycline-inducible expression system (Invitrogen); co-transfected with pcDNA3.1 aequorin
# Sequence (Q7Z2W7 whole entry): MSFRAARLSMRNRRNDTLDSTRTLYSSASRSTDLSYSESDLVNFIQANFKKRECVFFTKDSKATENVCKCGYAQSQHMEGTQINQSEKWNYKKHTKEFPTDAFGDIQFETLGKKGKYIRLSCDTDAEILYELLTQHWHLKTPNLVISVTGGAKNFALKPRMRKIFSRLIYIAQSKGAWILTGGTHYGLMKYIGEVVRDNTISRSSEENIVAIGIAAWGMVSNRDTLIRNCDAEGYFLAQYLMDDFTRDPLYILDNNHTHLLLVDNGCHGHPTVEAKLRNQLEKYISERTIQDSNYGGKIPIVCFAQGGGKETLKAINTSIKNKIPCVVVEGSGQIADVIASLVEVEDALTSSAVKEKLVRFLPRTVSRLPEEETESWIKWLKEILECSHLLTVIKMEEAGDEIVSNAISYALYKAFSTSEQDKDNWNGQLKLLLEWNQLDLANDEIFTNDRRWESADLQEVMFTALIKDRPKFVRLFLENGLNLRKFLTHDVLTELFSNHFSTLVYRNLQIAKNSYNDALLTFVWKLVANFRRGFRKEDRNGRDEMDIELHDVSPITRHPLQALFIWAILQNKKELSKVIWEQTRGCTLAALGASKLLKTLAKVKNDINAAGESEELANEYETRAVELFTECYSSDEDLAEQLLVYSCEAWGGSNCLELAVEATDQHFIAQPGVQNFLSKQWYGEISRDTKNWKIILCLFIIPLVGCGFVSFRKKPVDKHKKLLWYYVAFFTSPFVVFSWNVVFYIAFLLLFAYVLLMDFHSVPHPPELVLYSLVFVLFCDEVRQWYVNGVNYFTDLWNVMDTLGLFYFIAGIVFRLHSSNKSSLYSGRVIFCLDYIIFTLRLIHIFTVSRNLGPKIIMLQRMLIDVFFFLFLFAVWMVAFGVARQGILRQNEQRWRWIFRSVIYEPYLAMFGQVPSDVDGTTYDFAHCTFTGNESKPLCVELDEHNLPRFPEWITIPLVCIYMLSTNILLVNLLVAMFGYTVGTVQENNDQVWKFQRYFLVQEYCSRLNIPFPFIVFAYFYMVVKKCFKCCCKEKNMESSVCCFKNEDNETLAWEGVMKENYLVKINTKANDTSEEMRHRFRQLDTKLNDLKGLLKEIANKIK
# TEST: Luminescence readout assay for measuring intracellular calcium (aequorin, CHO cells expressing human TRPM8; icilin, L-menthol or cold activation)
# Type: cell-based
# Experimental: Luminescence Readout Assay for Measuring Intracellular Calcium A stable Chinese hamster ovary cell line expressing human TRPM8 was generated using tetracycline inducible T-REx™ expression system from Invitrogen, Inc. (Carlsbad, Calif.). […] Twenty four hours before the assay, cells were seeded in 96-well plates and TRPM8 expression was induced with 0.5 μg/ml tetracycline. On the day of the assay, culture media was removed and cells were incubated with assay buffer […]
pIC50: −log10 of the molar value.
Each entry below lists one item and its recorded pIC50 value.

{"columns": ["COMPOUND", "pIC50"],
 "data": [
  ["O=C(N[C@]1(c2ccc(OC(F)(F)F)cc2)CCOc2cccnc21)c1ccc2[nH]cnc2c1 [Example 237]", 8.39],
  ["O=C1CCN(C(=O)N[C@]2(c3ccc(OC(F)(F)F)c(F)c3)CCOc3cccnc32)CC1 [Example 103]", 6.56]
]}

Hello, the source for this data is patent US20150031668A1, in case you need it.
